Tested on: UACC-62 melanoma
Test: NCI-60 one-dose screen, 48 h (100 = growth as untreated, 0 = no growth, -100 = all killed)
Settings: 10 µM unless noted
Compounds without any hit were thinned out: in the full panel of roughly 83,000, 20% have a hit. Calls of active or inactive are those of the source. Rule for the calls: active = growth percent below 10; inactive = the rest.
Provide the reported growth of each item.

Please state, for each entry, its recorded growth.
1. Clc1ccc(OCc2nc(-c3ccccc3)n[nH]2)c(Cl)c1
2. Nc1ncc(-c2ccc3ncnc(Nc4ccc(F)c(Cl)c4)c3c2)cn1
3. COc1ccc(OC)c(NCC(=O)n2nc(/C=C\c3ccc(O)c(OC)c3)cc2/C=C\c2ccc(O)c(OC)c2)c1
4. COc1ccc(/C=C/C(=O)c2ccc(-n3cc(CN4CCN(c5cc6c(cc5F)c(=O)c(C(=O)O)cn6C5CC5)CC4)nn3)cc2)cc1OC
5. CCCN1C(=O)CSC1=Nc1ccc2cc3ccc(N=C4SCC(=O)N4CCC)cc3nc2c1
6. COc1cc2c(/C=C3/C(=O)Nc4ccc(O)cc43)c(Cl)n(Cc3cc(OC)c(OC)c(OC)c3)c2cc1C
7. COc1cc2ncnc(Oc3ccc(NC(=O)Nc4ccc(CN5CCOCC5)c(C(F)(F)F)c4)c4ccccc34)c2cc1OC
8. COc1cc(-c2nc3ccccc3s2)ccc1OCc1nc2n(n1)S(=O)(=O)c1ccccc1N2c1ccccc1

# output
95.6% (inactive)
103% (inactive)
15.8% (inactive)
54.1% (inactive)
36.9% (inactive)
36.6% (inactive)
28% (inactive)
97.8% (inactive)

# input Query the reported growth for UACC-62 melanoma; item: O=C(Nc1cccc(-n2ccc3c(NC(=O)c4ccccc4)nccc32)c1)c1cccc(C(F)(F)F)c1
# output 29.6% (inactive)

###

Test system: COLO 205 colon
Assay: NCI-60 one-dose screen, 48 h (100 = growth as untreated, 0 = no growth, -100 = all killed)
Settings: 10 µM unless noted
About 83,000 compounds went through this panel and 20% of them were active in at least one assay; those are over-represented in the sample as a whole.
Decide using growth alone. Strictly below 90%: yes. Equal to or above 90%: no.

Compound | Classification
O=C(CNc1cccnc1)Nc1ccc(C(=O)/C=C/c2ccc(Cl)cc2)cc1 | no
COc1ccc2c(c1)OC(N)=C(C#N)C2c1ccc(F)cc1 (stereo not given) | yes
Cc1ccc2c(c1)Nc1ccc(C)cc1C2(C)C | yes

// switching to the query compound
# input A record lists CC1(C)N=C(N)N=C(N)N1c1ccc(OCC(=O)Nc2ccccc2)c(Cl)c1 . Is its growth below 90%?
# output yes

###

System: UACC-62 melanoma
Assay: NCI-60 one-dose screen, 48 h (100 = growth as untreated, 0 = no growth, -100 = all killed)
Conditions: 10 µM unless noted
The panel holds about 83,000 compounds, 20% with a hit somewhere; the sample as a whole holds those more often.
Reported Property: growth (%)
Numbers only, in %.

Please state, for each entry, its recorded growth.
1. CCc1c(C)c2cc(-n3c(-c4ccc(OC)cc4)csc3=N)c(O)c(C)c2oc1=O
2. O=c1nc(N2CCOCC2)oc2c(-c3cccc4ccccc34)cccc12
3. Nc1ncnc2c1c(-c1ccc(Oc3ccccc3)cc1)nn2C[C@@H]1SSC[C@H]1O
4. COc1ccc(/C(Cl)=N/N=C(\Cl)c2cc(OC)c(OC)c(OC)c2)cc1OC(C)=O
5. CCCOC(=O)c1ccc([N+](=O)[O-])o1
6. OC(COc1ccccc1Cl)CN1CCN(c2ccc(Cl)cc2)CC1 (stereo not drawn)
7. COc1ccc(-c2ccc(NC(=O)Nc3ccc(Cl)c(C(F)(F)F)c3)c(C)n2)cc1

# output
[2, 54.4, -70.4, 93.9, 104, 95.9, 65.6]

Please state, for each entry, its recorded growth.
1. O=C(Cn1c2ccccc2c2ccncc21)N/N=C/c1c[nH]c2ccccc12
2. CCC1S/C(=N\N=C(/C)c2cc3ccccc3o2)N(c2ccccc2)C1=O (stereo not drawn)
3. CCOC(=O)c1cnc2c(OC)ccc(OC)c2c1Cl

# output
21.2
79.5
109

Please state, for each entry, its recorded growth.
1. COC(=O)CCCNS(=O)(=O)c1cc(C(=O)Nc2ccc(NC(=O)c3cc(S(=O)(=O)NCCCC(=O)OC)c(O)c(O)c3O)cc2)c(O)c(O)c1O
2. CCCCNC(=O)Oc1ccc(/C(=C(/CC)Cc2ccccc2)c2ccc(OCCCN(C)C)cc2)cc1
3. CC1CCc2cc(F)cc3c(=O)c(C(=O)O)cn1c23 (stereo not drawn)

# output
76.7
106
92.8

Please state, for each entry, its recorded growth.
1. O=C(/C=C/c1ccco1)c1cccc(Nc2nc(Nc3ccccc3)nc(Nc3ccccc3)n2)c1
2. CCCCC(=O)Nc1nc2ccc(SCCC)cc2s1
3. N#Cc1c2c(c(N)[nH]c1=O)C(=O)NC2(O)c1ccccc1 (stereo not drawn)
4. C=C1C(=O)O[C@H]2[C@H]1CC/C(COC(=O)CCCC(=O)OC/C1=C/CC[C@@]3(C)O[C@H]3[C@H]3OC(=O)C(=C)[C@@H]3CC1)=C\CC[C@@]1(C)O[C@@H]21
5. CN(C)CCNc1nc2ccccc2c2c(=O)c3ccccc3sc12
6. CN1CCN(C(=O)/C=C/c2ccc([N+](=O)[O-])o2)CC1

# output
1: 80.3; 2: 43.3; 3: 107; 4: -18.7; 5: -33; 6: 69.9
